Ref: ChEMBL document CHEMBL3758163

target_or_test_system: Tyrosine-protein kinase Fgr (Homo sapiens)
measurement_notes: Inhibition of FGR (unknown origin) at 500 nM
Give T when the value for inhibition is at least 20%. Give F when it is less.

1. COc1ccc(C(=O)NCCN(C)C)cc1-c1cc2c(N[C@H](C)c3ccccc3)ncnc2s1 | T
2. C[C@@H](Nc1ncnc2sc(-c3ccccc3C(N)=O)cc12)c1ccccc1 | F
3. C[C@@H](Nc1ncnc2sc(-c3ccc(C(=O)NCCN(C)C)cc3)cc12)c1ccccc1 | F
4. COc1cc(CO)ccc1-c1cc2c(Nc3ccc(F)c(Cl)c3)ncnc2s1 | F
5. COc1cc(CO)ccc1-c1cc2c(N[C@H](CO)c3ccccc3)ncnc2s1 | T
6. CN(C)CCNC(=O)c1ccc(-c2cc3c(N[C@H](CO)c4ccccc4)ncnc3s2)cc1 | T
